- System: MCF7/HER2
- Method: Tumor cell line growth
- Format: cell-based
- Measurement context: Homo sapiens, MCF7, 96 h; breast, 4 days
Measured quantity: pIC50
Value format note: pIC50 is -log10 of concentration (mol/L); just state the number.

Problem: What does the data say about its pIC50? Entry: Cc1oncc1C(=O)Nc1ccc(C(F)(F)F)cc1 [Compound A10]
Solution: 3.94

* * *

- Method: C6 glioma SC xenograft in mice
- Assay type: in vivo
- Measurement context: rat, in vivo, ip; 100 mg/kg (E15 at d8)
Measured quantity: mortality at 192 h (%)
The answer is to be given in %; state only the numeric part.

Problem: What does the data say about its mortality at 192 h? Entry: CC1c2nc3ccccc3c(=O)n2C(c2ccc(O)cc2)N1Cc1ccccc1 (stereo not shown)
Solution: 0

* * *

- Tested on: C6 cells
- Method: C6 SRB growth assay
- Type: cell-based, rat
- Measurement context: read-out: C6 SRB IC50
Measured quantity: pIC50
Value format note: pIC50 is -log10 of concentration (mol/L); just state the number.

Problem: For the record CC1c2nc3ccccc3c(=O)n2C(c2ccc(O)cc2)N1Cc1ccccc1 (stereo not shown) , what value of pIC50 is listed for C6 cells?
Solution: 4.98

* * *

- Target or system: PDGFR (Homo sapiens, UniProt P09619)
- Sequence (P09619 33-1106): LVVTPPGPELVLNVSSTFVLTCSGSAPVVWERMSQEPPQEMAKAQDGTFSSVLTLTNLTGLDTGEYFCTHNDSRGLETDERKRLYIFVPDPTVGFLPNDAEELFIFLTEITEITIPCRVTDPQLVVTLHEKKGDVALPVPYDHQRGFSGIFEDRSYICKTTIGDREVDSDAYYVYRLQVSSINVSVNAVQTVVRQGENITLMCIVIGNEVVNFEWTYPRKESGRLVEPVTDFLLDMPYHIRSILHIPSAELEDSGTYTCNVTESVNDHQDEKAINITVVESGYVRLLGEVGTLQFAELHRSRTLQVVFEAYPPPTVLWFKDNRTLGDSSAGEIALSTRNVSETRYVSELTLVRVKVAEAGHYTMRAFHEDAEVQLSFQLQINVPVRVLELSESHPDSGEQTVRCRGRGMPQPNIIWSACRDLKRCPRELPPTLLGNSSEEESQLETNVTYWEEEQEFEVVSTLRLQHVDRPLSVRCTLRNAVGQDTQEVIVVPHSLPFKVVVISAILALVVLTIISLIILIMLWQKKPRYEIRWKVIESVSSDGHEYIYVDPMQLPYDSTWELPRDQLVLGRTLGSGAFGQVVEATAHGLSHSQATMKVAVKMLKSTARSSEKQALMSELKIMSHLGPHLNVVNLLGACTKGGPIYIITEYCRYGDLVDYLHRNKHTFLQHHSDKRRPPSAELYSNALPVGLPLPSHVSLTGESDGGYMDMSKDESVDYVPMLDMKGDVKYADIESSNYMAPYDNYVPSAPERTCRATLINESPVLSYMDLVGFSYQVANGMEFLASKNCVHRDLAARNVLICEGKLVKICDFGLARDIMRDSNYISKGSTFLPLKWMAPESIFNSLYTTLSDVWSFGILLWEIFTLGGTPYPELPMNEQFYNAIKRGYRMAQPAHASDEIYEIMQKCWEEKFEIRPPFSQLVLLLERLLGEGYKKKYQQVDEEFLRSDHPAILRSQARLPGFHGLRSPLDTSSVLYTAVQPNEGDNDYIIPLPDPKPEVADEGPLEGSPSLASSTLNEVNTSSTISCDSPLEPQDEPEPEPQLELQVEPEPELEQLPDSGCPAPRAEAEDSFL
- Method: PDGF-stimulated receptor phosphorylation in U1242 cells, ELISA
- Type: cell-based
- Parameters: U1242 (PDGF-β receptor); host or cells: U1242 MG glioma cells
- Measurement context: 100 ng/ml PDGF-BB; read-out: ELISA P-TYR U1242 IC50
pIC50 overview
Value format note: pIC50 is -log10 of concentration (mol/L); just state the number.

Problem: What does the data say about its pIC50? Entry: N#CC(C(=O)Nc1ccc(C(F)(F)F)cc1)=C(O)c1cccc(Oc2ccccc2)c1
Solution: 4.46

Problem: What does the data say about its pIC50? Entry: N#CC(C(=O)Nc1ccc(C(F)(F)F)cc1)=C(O)C(c1ccccc1)c1ccccc1
Solution: 4.00

Problem: What does the data say about its pIC50? Entry: COc1cc2nc(-c3ccccc3)cnc2cc1O
Solution: 4.00

Problem: What does the data say about its pIC50? Entry: CC1(C)C(C(O)=C(C#N)C(=O)Nc2ccc(C(F)(F)F)cc2)C1(C)C
Solution: 3.74

* * *

pIC50 overview
- Target or system: PDGF-R (U1242) (Homo sapiens, UniProt P09619)
- Construct: U1242 (PDGF-β receptor); host or cells: U1242 MG glioma cells
- Sequence (P09619 33-1106): as the sequence (P09619 33-1106) above
- Method: U1242 kinase (PDGF-R activity)
- Format: cell-based
- Measurement context: read-out: U1242 KINASE IC50
Value format note: pIC50 is -log10 of concentration (mol/L); just state the number.

// below: answered molecules
Cc1cc2ccccc2c[n+]1[O-] [Compound P13]    5.92
Cc1cc2ncc(Nc3cccc(I)c3)nc2cc1C [Compound G29]    4.63
Cc1cc2nc(C(=O)O)c(-c3ccccc3)nc2cc1C [Compound G25]    6.00
c1ccc(-c2cnc3cc4ccccc4cc3n2)cc1 [Compound G22]    4.85
N#CCS(=O)(=O)C(C#N)=Cc1cc(O)c(O)c(Br)c1 [Compound J11]    5.51

Problem: For the record Cc1cc2ncc(Nc3ccc(I)cc3)nc2cc1C [Compound G30] , what value of pIC50 is listed for PDGF-R (U1242) (Homo sapiens, UniProt P09619)?
Solution: 4.49

Problem: For the record COc1cccc(NC(=S)C(C#N)C(=O)N2CCCC2)c1 (stereo not drawn) [Compound P21] , what value of pIC50 is listed for PDGF-R (U1242) (Homo sapiens, UniProt P09619)?
Solution: 4.03

* * *

- System: SF767
- Method: Tumor cell line growth
- Assay type: cell-based
- Measurement context: SF767, 96 h; glioma, 4 days; read-out: IC50
Measured quantity: pIC50
Value format note: pIC50 is -log10 of concentration (mol/L); just state the number.

Problem: What does the data say about its pIC50? Entry: Cc1oncc1C(=O)Nc1ccc(C(F)(F)F)cc1
Solution: 4.06

* * *

LD10 overview
- Method: LD10
- Measurement context: in vivo

// below: answered compounds
COc1cc(C=C(C#N)C(=O)NCCCc2ccccc2)cc(I)c1O    > 400 mg/kg
O=C(c1ccccc1)c1ccc2ncc(-c3ccccc3)nc2c1    > 200 mg/kg
CC1c2nc3ccccc3c(=O)n2C(c2ccc(O)cc2)N1Cc1ccccc1 (stereo not shown)    > 400 mg/kg
c1ccc(-c2cnc3cc4ccccc4cc3n2)cc1    25 mg/kg
Cc1noc(C)c1C(=O)Nc1ccc(C(F)(F)F)cc1    > 200 mg/kg
O=C(NN=Cc1ccc(O)c(O)c1)C(=O)Nc1cccc([N+](=O)[O-])c1    > 400 mg/kg
N#CC(=Cc1cc(O)c(O)c(Br)c1)S(=O)(=O)C(C#N)=Cc1cc(O)c(O)c(Br)c1    171 mg/kg
COc1cc2ncnc(N3CCc4ccccc43)c2cc1OC    > 100 mg/kg

Problem: What does the data say about its LD10? Entry: Cc1cc2nc(-c3ccccc3)c(-c3ccc(O)c(O)c3)nc2cc1C
Solution: > 200 mg/kg

Problem: What does the data say about its LD10? Entry: CC1c2nc3ccccc3c(=O)n2C(c2ccc(O)c(O)c2)N1Cc1ccccc1 (stereo not shown)
Solution: 75 mg/kg

* * *

- Method: physchem
- Measurement context: pbte, organic solvent or mixture
Measured quantity: solubility

Problem: What does the data say about its solubility? Entry: Cc1oncc1C(=O)Nc1ccc(C(F)(F)F)cc1
Solution: ~60 mg/mL

* * *

IC50 overview
- Target or system: EGFR (Homo sapiens)
- Construct: expressed in transfected cells; host or cells: NIH3T3 mouse fibroblasts, retroviral vector
- Sequence (P00533 25-1210): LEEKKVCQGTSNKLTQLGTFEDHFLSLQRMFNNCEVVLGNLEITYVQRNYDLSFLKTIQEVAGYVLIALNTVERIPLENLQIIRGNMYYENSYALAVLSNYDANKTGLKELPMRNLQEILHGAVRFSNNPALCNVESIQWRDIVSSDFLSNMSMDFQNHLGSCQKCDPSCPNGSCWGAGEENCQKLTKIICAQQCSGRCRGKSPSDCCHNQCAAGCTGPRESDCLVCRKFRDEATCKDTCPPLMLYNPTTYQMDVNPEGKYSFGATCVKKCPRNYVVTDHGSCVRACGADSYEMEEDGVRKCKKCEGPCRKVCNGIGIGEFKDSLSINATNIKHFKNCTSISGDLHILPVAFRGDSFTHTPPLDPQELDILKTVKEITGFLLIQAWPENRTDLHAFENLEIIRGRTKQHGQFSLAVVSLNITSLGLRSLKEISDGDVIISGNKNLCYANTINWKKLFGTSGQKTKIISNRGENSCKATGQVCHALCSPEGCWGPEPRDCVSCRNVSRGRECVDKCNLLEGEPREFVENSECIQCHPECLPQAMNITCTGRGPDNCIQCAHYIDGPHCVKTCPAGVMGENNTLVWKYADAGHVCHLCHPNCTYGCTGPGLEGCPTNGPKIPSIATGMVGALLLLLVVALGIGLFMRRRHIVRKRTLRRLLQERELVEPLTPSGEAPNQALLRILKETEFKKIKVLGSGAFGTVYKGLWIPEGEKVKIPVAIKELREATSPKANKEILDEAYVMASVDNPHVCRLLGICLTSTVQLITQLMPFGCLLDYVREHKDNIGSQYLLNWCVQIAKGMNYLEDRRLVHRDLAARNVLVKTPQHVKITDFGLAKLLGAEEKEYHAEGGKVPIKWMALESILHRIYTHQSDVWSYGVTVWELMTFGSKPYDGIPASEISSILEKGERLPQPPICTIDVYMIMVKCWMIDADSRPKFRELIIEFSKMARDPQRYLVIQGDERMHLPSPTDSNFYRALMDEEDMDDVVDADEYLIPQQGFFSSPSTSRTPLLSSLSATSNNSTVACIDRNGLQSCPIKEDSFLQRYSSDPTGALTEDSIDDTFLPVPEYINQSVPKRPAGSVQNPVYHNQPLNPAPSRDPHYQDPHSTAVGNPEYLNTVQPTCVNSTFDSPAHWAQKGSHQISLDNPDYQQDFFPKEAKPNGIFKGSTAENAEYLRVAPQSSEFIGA
- Method: Receptor tyrosine kinase inhibition, EGFR
- Format: cell-based
- Measurement context: read-out: EGFR ID50

Cc1cc2nc(-c3ccccc3)c(-c3ccc(O)c(O)c3)nc2cc1C [Compound G24]    > 100 µM
CN(C)CCn1cc(C=C(C#N)c2[nH]nc(N)c2C#N)c2ccccc21 [Compound D18]    > 50 µM
N#CC(=Cc1ccc(O)c(O)c1)C(=O)NCc1ccc(F)cc1 [Compound P25]    > 100 µM

Moving on to another compound below.
Problem: For the record N#CC(=Cc1c[nH]c2ccccc12)c1c(C#N)c(N)nn1-c1ccccc1 [Compound D20] , what value of IC50 is listed for EGFR (Homo sapiens)?
Solution: > 50 µM

* * *

- Target or system: PDGFR (Homo sapiens, UniProt P09619)
- Method: PDGF-stimulated receptor phosphorylation in U1242 cells, ELISA
- Format: cell-based
- Parameters: U1242 (PDGF-β receptor); host or cells: U1242 MG glioma cells
- Protocol: For ELISA assays, cells were grown to 80-90% confluency in growth medium and seeded in 96-well tissue culture plates in 0.5% serum at 25,000 to 30,000 cells per well. […] The lysate was incubated in the coated plates for 1 hour and then washed four times in TBST (35 mM Tris-HCl pH 7.0, 0.15 M NaCl, 0.1% Triton X-100). […] Absorbance was then measured at 410 nm.
Measured quantity: IC50 (µM)
The answer is to be given in µM; state only the numeric part.

Problem: What does the data say about its IC50? Entry: N#CC(=Cc1c[nH]c2ccccc12)C(N)=C(C#N)C#N
Solution: 60

* * *

- System: U1242 cells
- Method: Cytotoxicity in U1242 cells, LDH
- Type: cell-based
- Measurement context: Homo sapiens, read-out: CYTOXICITY LDH U1242 LD50; heading: CYTOXICITY LDH U1242 LD50
CC50 overview

O=C(c1ccccc1)c1ccc2ncc(-c3ccccc3)nc2c1    > 100 µM
COc1cc2nc(Cl)c(-c3ccccc3)cc2c(OC)c1OC    90 µM
Cc1cc2ncc(-c3ccccc3)nc2cc1C    > 100 µM

Problem: For the record COc1cc2ncc(-c3ccccc3)nc2cc1OC , what value of CC50 is listed for U1242 cells?
Solution: > 100 µM

* * *

- Target or system: EGFR (Homo sapiens)
- Construct: expressed in transfected cells; host or cells: NIH3T3 mouse fibroblasts, retroviral vector
- Method: Receptor tyrosine kinase inhibition, EGFR
- Format: cell-based
- Measurement context: read-out: EGFR ID50
- Protocol: For western blotting, cells were plated in 2 mL growth medium into 6-well dishes (500,000 cells per well) and allowed to attach overnight. The medium was replaced with 2 mL MCDB 105 (UCSF Cell Culture Facility) supplemented with 1% FBS. The plates were then incubated overnight at 37° C., ambient CO2. […] The integrity of the protein-to-membrane transfer was determined by staining with 1% Ponceau S in 5% acetic acid for 5 min. […]
IC50 overview

Problem: What does the data say about its IC50? Entry: COc1cc2ncnc(Nc3ccccc3)c2cc1OC
Solution: > 50 µM

Problem: What does the data say about its IC50? Entry: N#CC(=Cc1cc(O)c(O)c(Br)c1)S(=O)(=O)C(C#N)=Cc1cc(O)c(O)c(Br)c1
Solution: > 100 µM

Problem: What does the data say about its IC50? Entry: N#CCS(=O)(=O)C(C#N)=Cc1cc(O)c(O)c(Br)c1
Solution: > 100 µM

Problem: What does the data say about its IC50? Entry: COCCCN1C(=O)SC(=Cc2ccccc2Cl)C1=O
Solution: > 100 µM

Problem: What does the data say about its IC50? Entry: Cc1cc2nc(C(=O)O)c(-c3ccccc3)nc2cc1C
Solution: > 50 µM
